- system.tested: Vascular endothelial growth factor receptor 1 (Homo sapiens) (UniProt P17948)
- Sequence (P17948 whole entry): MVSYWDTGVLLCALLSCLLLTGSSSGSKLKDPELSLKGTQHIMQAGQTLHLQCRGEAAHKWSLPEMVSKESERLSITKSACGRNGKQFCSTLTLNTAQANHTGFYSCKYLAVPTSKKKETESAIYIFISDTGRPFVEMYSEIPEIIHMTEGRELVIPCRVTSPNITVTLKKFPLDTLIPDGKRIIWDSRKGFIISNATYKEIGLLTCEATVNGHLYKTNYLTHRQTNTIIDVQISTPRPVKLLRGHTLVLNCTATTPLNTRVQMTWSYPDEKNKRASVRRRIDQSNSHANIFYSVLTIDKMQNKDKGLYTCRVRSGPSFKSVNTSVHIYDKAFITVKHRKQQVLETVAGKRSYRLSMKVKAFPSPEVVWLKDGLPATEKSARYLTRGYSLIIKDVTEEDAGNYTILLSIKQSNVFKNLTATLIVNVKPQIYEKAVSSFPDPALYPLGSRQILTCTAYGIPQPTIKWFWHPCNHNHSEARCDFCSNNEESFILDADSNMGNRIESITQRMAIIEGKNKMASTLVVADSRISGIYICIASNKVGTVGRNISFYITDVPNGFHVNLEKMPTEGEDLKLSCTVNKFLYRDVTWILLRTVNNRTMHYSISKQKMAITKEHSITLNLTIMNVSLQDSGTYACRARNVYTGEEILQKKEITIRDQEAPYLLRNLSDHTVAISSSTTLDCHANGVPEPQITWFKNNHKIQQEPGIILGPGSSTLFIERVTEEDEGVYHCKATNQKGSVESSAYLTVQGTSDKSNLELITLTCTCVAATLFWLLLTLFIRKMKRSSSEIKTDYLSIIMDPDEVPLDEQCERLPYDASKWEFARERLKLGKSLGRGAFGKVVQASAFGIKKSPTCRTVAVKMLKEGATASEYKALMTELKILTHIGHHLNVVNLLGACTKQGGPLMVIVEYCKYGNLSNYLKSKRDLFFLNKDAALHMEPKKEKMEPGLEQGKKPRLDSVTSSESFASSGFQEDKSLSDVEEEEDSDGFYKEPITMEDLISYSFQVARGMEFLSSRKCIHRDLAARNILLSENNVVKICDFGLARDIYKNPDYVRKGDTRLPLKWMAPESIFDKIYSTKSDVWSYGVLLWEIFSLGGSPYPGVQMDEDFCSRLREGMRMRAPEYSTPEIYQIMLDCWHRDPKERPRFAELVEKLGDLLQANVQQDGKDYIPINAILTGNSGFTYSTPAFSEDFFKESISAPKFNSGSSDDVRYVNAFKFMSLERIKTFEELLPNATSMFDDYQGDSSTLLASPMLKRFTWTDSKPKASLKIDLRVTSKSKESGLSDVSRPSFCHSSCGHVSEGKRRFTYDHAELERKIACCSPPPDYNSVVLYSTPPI
- protocol.description: Percent inhibition of Vascular endothelial growth factor receptor 1 at 10 uM
# Lookup of reported inhibition keyed by entry
Answer format: numeric, % implied, no suffix.

[
  {
    "input.smiles": "NC(=O)c1ccc(-c2nnc(Nc3ccc(Br)cc3)c3ccccc23)cc1",
    "system.tested": "Vascular endothelial growth factor receptor 1 (Homo sapiens) (UniProt P17948)",
    "value": 53
  },
  {
    "input.smiles": "CC(C)(C)c1ccc(Nc2nnc(-c3ccc(C(N)=O)cc3)c3ccccc23)cc1",
    "system.tested": "Vascular endothelial growth factor receptor 1 (Homo sapiens) (UniProt P17948)",
    "value": 73
  },
  {
    "input.smiles": "NC(=O)c1ccc(-c2nnc(Nc3cccc(Br)c3)c3ccccc23)cc1",
    "system.tested": "Vascular endothelial growth factor receptor 1 (Homo sapiens) (UniProt P17948)",
    "value": 51
  }
]

Next, consider the following molecule.
Req: GET /values?readout=inhibition&item= `CC(C)(C)c1cccc(Nc2nnc(-c3ccc(C(N)=O)cc3)c3ccccc23)c1`
Resp: 60

Each recorded value in this set is attributed to ChEMBL document CHEMBL1143454.
